Cited source for all entries: paper doi:10.1101/2023.09.25.559398v1

# subject of test: D2longR-mNeonGreen (hD2R-mNeonGreen) (Homo sapiens, UniProt P14416)
# Sequence (P14416 whole entry): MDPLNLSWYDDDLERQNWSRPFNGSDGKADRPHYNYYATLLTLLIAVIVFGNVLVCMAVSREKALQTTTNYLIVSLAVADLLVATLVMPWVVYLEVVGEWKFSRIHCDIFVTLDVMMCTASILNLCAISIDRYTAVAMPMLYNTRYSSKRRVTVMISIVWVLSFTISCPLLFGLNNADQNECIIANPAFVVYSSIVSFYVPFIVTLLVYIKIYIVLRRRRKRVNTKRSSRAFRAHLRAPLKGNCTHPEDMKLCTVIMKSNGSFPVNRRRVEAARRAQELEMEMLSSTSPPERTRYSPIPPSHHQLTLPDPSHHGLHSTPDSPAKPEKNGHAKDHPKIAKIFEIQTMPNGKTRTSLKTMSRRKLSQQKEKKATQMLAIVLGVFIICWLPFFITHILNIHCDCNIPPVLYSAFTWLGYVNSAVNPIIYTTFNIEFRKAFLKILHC
# experiment summary: molecular brightness, confocal microscopy of intact cells
quantity: Kd (nM)
Give just the number in nM; leave the unit off.

Ask: Please indicate recorded Kd of CN(C)c1ccc2c(-c3ccc(C(=O)NCCCC(=O)Nc4ccc(CCN5CN(c6ccccc6)C6(CCN(CCCC(=O)c7ccc(F)cc7)CC6)C5=O)cc4)cc3C(=O)[O-])c3ccc(=[N+](C)C)cc-3oc2c1 measured with D2longR-mNeonGreen (hD2R-mNeonGreen) (Homo sapiens, UniProt P14416).
Reply: 7.59
